# PBM binding z-score annotations
tested on: PPARg DBDmut:RXRa IVT, anti-PPARg (DBD mutation: PPARg1 K132A/R137A, NR concentration 270 nM, RXRa partner concentration 90 nM); experiment: PBM binding z-score (relative to random genomic background probes); higher = stronger binding; sequences stand for … in GC…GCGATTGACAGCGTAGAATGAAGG
Recorded endpoint: PBM binding z-score

# Sequence record, Recorded endpoint, Reported
measured = [
    ("ACTACAGGGTCACTAGGCCAGAGTAGGTACGAAT", "PBM binding z-score", 1.45),
    ("ATCGAAAGGTCGTCAGGTGAGTATACAGAAAGGC", "PBM binding z-score", 2.81),
    ("GGAACGAGGGCATTCGAGATGATAGCATGGCGAT", "PBM binding z-score", -0.145),
    ("TCATACAGGTAAACAGGTGAAAGTCCGTAAGTTA", "PBM binding z-score", 0.361),
    ("CCTCGCAGGCCAGGGTCACTCAAGCATTTCGCTT", "PBM binding z-score", -0.923),
    ("GCATATAGGTAATACAAGGTGAAAGCCCGATTGT", "PBM binding z-score", 1.21),
    ("CCTACTGGGCCAAAAAGGTCACTGATGCCGATAA", "PBM binding z-score", -0.138),
    ("TCATATAGGTAAAACAGGTGAAAGTCGGCATCTA", "PBM binding z-score", 0.289),
    ("TCATAGAGGTAATACAGGTGAAAGTCGGCATCTA", "PBM binding z-score", 0.716),
    ("CATACAGGGTCAGCTAAGCCAGAGTAGGGACGGC", "PBM binding z-score", 1.15),
    ("TCTTGTAGATCAATAGAGGTTTAGAAAGTGCGCT", "PBM binding z-score", 0.996),
    ("TCATATGGGTAAACAGGTGAAAGTCCGTAAGTTA", "PBM binding z-score", 0.27),
    ("CCTTACGGGTCAAGGGTATAGCACGGGTGGTACG", "PBM binding z-score", 0.361),
    ("CGCACTAGGTCAGAACAGGACAGTGAAGGATGAT", "PBM binding z-score", 0.649),
    ("CGTCCAATGTCATAGGAGGTCAGTGAAGACAGAT", "PBM binding z-score", 0.476),
    ("CCTCGGAGGACAGAATGTCAGAGCTGTCCGCTTT", "PBM binding z-score", -1.38),
    ("ATCGAAAGGTCGAAGGTGAGTATTCCCACCCGAA", "PBM binding z-score", 0.944),
    ("TCTGCTAGGTCAGTTGGTCAGCTCACGAGCTGCC", "PBM binding z-score", 0.484),
    ("GCTGCTAGGTCGGGTTGGTCAGCTAACGGGTACG", "PBM binding z-score", -1.51),
    ("CCAAGTAGGTTATGGGGCATTCAGGCAACGGTGA", "PBM binding z-score", 0.251),
    ("CCAACTGGGCCATTCAGAGGTCATTGATCATATG", "PBM binding z-score", 0.485),
    ("GCTTGTAGATCAAGGTTAAGAATGACTAAGCTAA", "PBM binding z-score", 0.367),
    ("CTACCAAGTTGAACAAGGTCGTTGATTACTATTC", "PBM binding z-score", 0.967),
    ("TGTCAAAGTTCCAAGGTAACGTAAGTATCCACAC", "PBM binding z-score", 0.991),
    ("ACTAGTTGGTCAGCTGAGGTCGCACACAATTCGG", "PBM binding z-score", 0.582),
    ("ATATGTAGGTTAAGGGTCCTTCAGGTTGGTTCGC", "PBM binding z-score", 1.78),
    ("CAAACTAGGTCACCGGAATGTCAAAGTCCGCATG", "PBM binding z-score", 5.11),
    ("CCGAATGGGGCATAAGGTTACCATAAGCCAGCCC", "PBM binding z-score", -1.29),
    ("AGAAGGAGGGCACGCTGAGTTGATAGCAGAGTAG", "PBM binding z-score", 0.794),
    ("CATACAAGGTCAGCTAGGCCAGAGTAGGGACGGC", "PBM binding z-score", 1.69),
    ("ATATGTAGGTTATTGGGTCATTCAGTTTGCGCAT", "PBM binding z-score", 4.52),
]
